Reference source for all entries: the supplement of paper PMC9112550

system: Escherichia coli TOP10; assay: shrunken log2 fold change of peptide-encoding DNA abundance (4.5 h post-induction vs induction); higher = less antimicrobial activity (less host growth inhibition); details: time post-induction: 4.5 h; library: site-saturation at positions 5, 18, 19, 20;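 further: peptides expressed intracellularly from a pBAD plasmid library in pooled LB shake-flask culture, induced with 0.3% L-arabinose, DNA abundance read by NGS, three biological replicates, DESeq2 with apeglm shrinkage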

item_sequence	measured_on	shrunken log2 fold change
RRIRERPPRLPRPRPRPEECPRP	Escherichia coli TOP10	-0.000921
RRIRVRPPRLPRPRPRPDRMPRP	Escherichia coli TOP10	-0.268
RRIRERPPRLPRPRPRPDNAPRP	Escherichia coli TOP10	-0.245
RRIRPRPPRLPRPRPRPNIIPRP	Escherichia coli TOP10	-0.407
RRIRGRPPRLPRPRPRPLLFPRP	Escherichia coli TOP10	0.873
RRIRCRPPRLPRPRPRPYMYPRP	Escherichia coli TOP10	-0.912
RRIRWRPPRLPRPRPRPIGQPRP	Escherichia coli TOP10	0.00299
RRIRHRPPRLPRPRPRPEGTPRP	Escherichia coli TOP10	-0.0282
RRIRGRPPRLPRPRPRPSWTPRP	Escherichia coli TOP10	0.219
RRIRHRPPRLPRPRPRPSYKPRP	Escherichia coli TOP10	-0.0553
RRIRFRPPRLPRPRPRPRPWPRP	Escherichia coli TOP10	0.505
RRIRWRPPRLPRPRPRPILLPRP	Escherichia coli TOP10	-0.0849
RRIRDRPPRLPRPRPRPVSEPRP	Escherichia coli TOP10	0.514
RRIRTRPPRLPRPRPRPLEFPRP	Escherichia coli TOP10	-0.0903
RRIRSRPPRLPRPRPRPLHKPRP	Escherichia coli TOP10	0.104
RRIRMRPPRLPRPRPRPSEEPRP	Escherichia coli TOP10	0.0287
RRIRARPPRLPRPRPRPTYKPRP	Escherichia coli TOP10	-0.23
RRIRQRPPRLPRPRPRPWIAPRP	Escherichia coli TOP10	-0.161
RRIRTRPPRLPRPRPRPDWGPRP	Escherichia coli TOP10	0.194
RRIRTRPPRLPRPRPRPPNVPRP	Escherichia coli TOP10	-0.201
RRIRKRPPRLPRPRPRPQREPRP	Escherichia coli TOP10	0.749
RRIRIRPPRLPRPRPRPKLCPRP	Escherichia coli TOP10	0.0563
RRIRSRPPRLPRPRPRPFVCPRP	Escherichia coli TOP10	-0.326
RRIRSRPPRLPRPRPRPKATPRP	Escherichia coli TOP10	0.7
RRIRNRPPRLPRPRPRPNCQPRP	Escherichia coli TOP10	-0.182
RRIRLRPPRLPRPRPRPYQTPRP	Escherichia coli TOP10	0.0345
RRIRNRPPRLPRPRPRPVDFPRP	Escherichia coli TOP10	-0.262
RRIRKRPPRLPRPRPRPDMPPRP	Escherichia coli TOP10	0.122
RRIRERPPRLPRPRPRPFEPPRP	Escherichia coli TOP10	-0.195
RRIRSRPPRLPRPRPRPKLLPRP	Escherichia coli TOP10	0.325
RRIRARPPRLPRPRPRPHLMPRP	Escherichia coli TOP10	0.0747
RRIRMRPPRLPRPRPRPPQAPRP	Escherichia coli TOP10	1.06
